# protocolDetails: Mouse pharmacokinetics studies
# Assay type: in vivo, CD-1 mice
# experimentalParameters: female, mouse, in vivo; CD-1 mice, 10 mg/kg
readoutName: half-life (h)

[[record]]
compound = "CO[C@H]1/C=C/O[C@@]2(C)Oc3c(C)c(O)c4c(c3C2=O)C2=NC3(CCN(CC(C)C)CC3)NC2=C(NC(=O)/C(C)=C\\C=C\\[C@H](C)[C@H](O)[C@@H](C)[C@@H](O)[C@@H](C)[C@H](OC(C)=O)[C@@H]1C)C4=O [rifabutin, reference compound]"
measvalue = 4


* * *

Catalogue of plasma unbound fraction readings, one per entry.
# protocolDetails: Plasma protein binding assay (rapid equilibrium dialysis)
# Assay type: in vitro ADME
# experimentalParameters: Table 10
readoutName: plasma unbound fraction (%)

[[record]]
molecularstring = "CO[C@H]1/C=C/O[C@@]2(C)Oc3c(C)c(O)c4c(c3C2=O)C2=NC3(CCN(CC(C)C)CC3)NC2=C(NC(=O)/C(C)=C/C=C/[C@H](C)[C@H](O)[C@@H](C)[C@@H](O)[C@@H](C)[C@H](OC(=O)N2CCOC(C)(C)C2)[C@@H]1C)C4=O"
readoutname = "plasma unbound fraction"
measvalue = 0.39

[[record]]
molecularstring = "CCN1CCN(C(=O)O[C@H]2[C@H](C)[C@H](O)[C@H](C)[C@@H](O)[C@@H](C)/C=C/C=C(\\C)C(=O)NC3=C4NC5(CCN(CC(C)C)CC5)N=C4c4c(c(O)c(C)c5c4C(=O)[C@@](C)(O/C=C/[C@H](OC)[C@H]2C)O5)C3=O)CC1"
readoutname = "plasma unbound fraction"
measvalue = 0.65

[[record]]
molecularstring = "CO[C@H]1/C=C/O[C@@]2(C)Oc3c(C)c(O)c4c(c3C2=O)C2=NC3(CCN(CC(C)C)CC3)NC2=C(NC(=O)/C(C)=C/C=C/[C@H](C)[C@H](O)[C@@H](C)[C@@H](O)[C@@H](C)[C@H](OC(=O)c2nccs2)[C@@H]1C)C4=O"
readoutname = "plasma unbound fraction"
measvalue = 1.89

[[record]]
molecularstring = "CO[C@H]1/C=C/O[C@@]2(C)Oc3c(C)c(O)c4c(c3C2=O)C2=NC3(CCN(CC(C)C)CC3)NC2=C(NC(=O)/C(C)=C/C=C/[C@H](C)[C@H](O)[C@@H](C)[C@@H](O)[C@@H](C)[C@H](OC(=O)Nc2ccncn2)[C@@H]1C)C4=O"
readoutname = "plasma unbound fraction"
measvalue = 5.50


* * *

# plasma unbound fraction annotations
# protocolDetails: Plasma protein binding assay (rapid equilibrium dialysis)
# Type: in vitro ADME
# experimentalParameters: Table 10
readoutName: plasma unbound fraction (%)

[[record]]
compound = "CCOC(=O)C1CN(C(=O)O[C@H]2[C@H](C)[C@H](O)[C@H](C)[C@@H](O)[C@@H](C)/C=C/C=C(\\C)C(=O)NC3=C4NC5(CCN(CC(C)C)CC5)N=C4c4c(c(O)c(C)c5c4C(=O)[C@@](C)(O/C=C/[C@H](OC)[C@H]2C)O5)C3=O)CCO1 (stereo partly shown)"
measvalue = 0.75

[[record]]
compound = "CO[C@H]1/C=C/O[C@@]2(C)Oc3c(C)c(O)c4c(c3C2=O)C2=NC3(CCN(CC(C)C)CC3)NC2=C(NC(=O)/C(C)=C/C=C/[C@H](C)[C@H](O)[C@@H](C)[C@@H](O)[C@@H](C)[C@H](OC(=O)c2ccccc2F)[C@@H]1C)C4=O"
measvalue = 0.05

[[record]]
compound = "CO[C@H]1/C=C/O[C@@]2(C)Oc3c(C)c(O)c4c(c3C2=O)C2=NC3(CCN(CC(C)C)CC3)NC2=C(NC(=O)/C(C)=C/C=C/[C@H](C)[C@H](O)[C@@H](C)[C@@H](O)[C@@H](C)[C@H](OC(=O)Nc2cccnc2)[C@@H]1C)C4=O"
measvalue = 1.75

[[record]]
compound = "CO[C@H]1/C=C/O[C@@]2(C)Oc3c(C)c(O)c4c(c3C2=O)C2=NC3(CCN(CC(C)C)CC3)NC2=C(NC(=O)/C(C)=C/C=C/[C@H](C)[C@H](O)[C@@H](C)[C@@H](O)[C@@H](C)[C@H](OC(=O)N2CCN(C(C)(C)C)CC2)[C@@H]1C)C4=O"
measvalue = 3.60

[[record]]
compound = "CO[C@H]1/C=C/O[C@@]2(C)Oc3c(C)c(O)c4c(c3C2=O)C2=NC3(CCN(CC(C)C)CC3)NC2=C(NC(=O)/C(C)=C/C=C/[C@H](C)[C@H](O)[C@@H](C)[C@@H](O)[C@@H](C)[C@H](OC(=O)N2CCN(c3ccccc3)CC2)[C@@H]1C)C4=O"
measvalue = 0.13

[[record]]
compound = "COc1ccc(NC(=O)O[C@H]2[C@H](C)[C@H](O)[C@H](C)[C@@H](O)[C@@H](C)/C=C/C=C(\\C)C(=O)NC3=C4NC5(CCN(CC(C)C)CC5)N=C4c4c(c(O)c(C)c5c4C(=O)[C@@](C)(O/C=C/[C@H](OC)[C@H]2C)O5)C3=O)cc1"
measvalue = 0.15

[[record]]
compound = "CO[C@H]1/C=C/O[C@@]2(C)Oc3c(C)c(O)c4c(c3C2=O)C2=NC3(CCN(CC(C)C)CC3)NC2=C(NC(=O)/C(C)=C/C=C/[C@H](C)[C@H](O)[C@@H](C)[C@@H](O)[C@@H](C)[C@H](OC(=O)N2CCN(CC(C)C)CC2)[C@@H]1C)C4=O"
measvalue = 0.20

[[record]]
compound = "CO[C@H]1/C=C/O[C@@]2(C)Oc3c(C)c(O)c4c(c3C2=O)C2=NC3(CCN(CC(C)C)CC3)NC2=C(NC(=O)/C(C)=C/C=C/[C@H](C)[C@H](O)[C@@H](C)[C@@H](O)[C@@H](C)[C@H](OC(=O)Nc2cccc(C)c2)[C@@H]1C)C4=O"
measvalue = 0.05

[[record]]
compound = "CO[C@H]1/C=C/O[C@@]2(C)Oc3c(C)c(O)c4c(c3C2=O)C2=NC3(CCN(CC(C)C)CC3)NC2=C(NC(=O)/C(C)=C/C=C/[C@H](C)[C@H](O)[C@@H](C)[C@@H](O)[C@@H](C)[C@H](OC(=O)c2ccccc2Cl)[C@@H]1C)C4=O"
measvalue = 0.06

[[record]]
compound = "CO[C@H]1/C=C/O[C@@]2(C)Oc3c(C)c(O)c4c(c3C2=O)C2=NC3(CCN(CC(C)C)CC3)NC2=C(NC(=O)/C(C)=C/C=C/[C@H](C)[C@H](O)[C@@H](C)[C@@H](O)[C@@H](C)[C@H](OC(=O)NCc2cn(Cc3ccccc3)nn2)[C@@H]1C)C4=O"
measvalue = 0.30

